MOLECULE: CCCCCCCCCCCCCCCC(=O)OC(C)C [isopropyl palmitate]
light transmittance value: about 101%

MOLECULE: CCCCCCCCCCCCCC(=O)OC(C)C [isopropyl myristate]
light transmittance value: about 101%

MOLECULE: CCCCCCCCCCCCCCCCCC(=O)OCCCC [butyl stearate]
light transmittance value: about 100%

MOLECULE: CCCCCCCCCCCCCC(C)C
light transmittance value: about 100%
